# Test protocol: Lipophilicity (Rm) (liquid chromatography)
# Format: physicochemical
Output Met for Rm not less than 0.3; output Not met otherwise.

Worked cases, answers included:
- Molecule: "CS(=O)(=O)Nc1ccc(Nc2c3ccccc3nc3cc([N+](=O)[O-])ccc23)cc1"
  Label class: "Not met"
- Molecule: "COc1cc(NS(C)(=O)=O)ccc1Nc1c2ccccc2nc2c(C)cccc12"
  Label class: "Not met"

Q. Exam item: decide whether the reported Rm for "COc1cc(NS(C)(=O)=O)ccc1Nc1c2ccccc2nc2ccc(C)cc12" is at least 0.3.
A. Met

Q. Given "Cc1cccc2c(Nc3ccc(NS(C)(=O)=O)cc3)c3ccccc3nc12" , state whether its Rm is at least 0.3.
A. Not met

Q. Is Rm for "CNC(=O)c1cccc2c(Nc3ccc(NP(=O)(OC)OC)cc3)c3ccccc3nc12" at or above 0.3?
A. Not met

Q. Reported Rm reaches at least 0.3 for "COP(=O)(Nc1ccc(Nc2c3ccccc3nc3cc(Br)ccc23)cc1)OC" ?
A. Met

Q. For this molecule, is measured Rm 0.3 or higher? "COP(=O)(Nc1ccc(Nc2c3ccccc3nc3cc(N)ccc23)cc1)OC"
A. Not met

Q. Dear colleague, could you confirm whether "CS(=O)(=O)Nc1ccc(Nc2c3ccccc3nc3cc(N)ccc23)cc1" has Rm at or above 0.3?
A. Not met

Q. In plain terms: is recorded Rm at least 0.3 for "CS(=O)(=O)Nc1ccc(Nc2c3ccccc3nc3cc(Br)ccc23)cc1" ?
A. Not met

Q. Threshold query (Rm >= 0.3) on "COP(=O)(Nc1ccc(Nc2c3ccccc3nc3ccc(Cl)cc23)cc1)OC"
A. Met

Q. Is reported Rm greater than or equal to 0.3 here: "COP(=O)(Nc1ccc(Nc2c3ccccc3nc3cc(S(C)(=O)=O)ccc23)cc1)OC"
A. Not met

Q. Hi team, for "COP(=O)(Nc1ccc(Nc2c3ccccc3nc3c(C)cccc23)cc1)OC" , is the recorded Rm at or above 0.3?
A. Met

Q. Hi, just wondering whether "COc1cc(NS(C)(=O)=O)ccc1Nc1c2ccccc2nc2cc(Cl)ccc12" shows Rm of 0.3 or higher.
A. Met

Q. Form field: Rm at least 0.3? Entry: "CNC(=O)c1cccc2c(Nc3ccc(NP(=O)(OC)OC)cc3OC)c3ccccc3nc12"
A. Not met

Q. API: above_or_equal(metric=Rm, cutoff=0.3) for item "COc1cc(NP(=O)(OC)OC)ccc1Nc1c2ccccc2nc2ccccc12"
A. Met

Q. Tell me whether Rm is at least 0.3 here: "COc1cc(NP(=O)(OC)OC)ccc1Nc1c2ccccc2nc2cc(Br)ccc12"
A. Met

====

# Test system: P388
# Test protocol: In vivo dose of drug needed for a percentage increase of 50% in life span of tumor-bearing mice compared to untreated controls after inoculation of 10e6 P388 leukemia cells
# Type: functional, Mus musculus
Entries whose D50 is below 9 mg/kg/day take rule met; entries at or above 9 mg/kg/day take rule not met.

Q. D50 under 9 mg/kg/day? Item: "COc1cc(NS(C)(=O)=O)ccc1Nc1c2ccccc2nc2cc(Cl)ccc12"
A. rule met

====

# Tested on: P388
# Test protocol: In vivo tumor cell selectivity (ILSmax values)for percentage increase in life span of treated animals over that of P388 tumor bearing untreated control animals
# Format: functional, Mus musculus
Decide using Activity: a value greater than or equal to 50% is MET, a smaller one is NOT MET.

Consider the worked cases shown below.
- Line notation: "COP(=O)(Nc1ccc(Nc2c3ccccc3nc3cc([N+](=O)[O-])ccc23)cc1)OC"
  System name: "P388"
  Label class: "NOT MET"
- Line notation: "COP(=O)(Nc1ccc(Nc2c3ccccc3nc3ccc(C)cc23)cc1)OC"
  System name: "P388"
  Label class: "NOT MET"
- Line notation: "COP(=O)(Nc1ccc(Nc2c3ccccc3nc3cc(Br)ccc23)cc1)OC"
  System name: "P388"
  Label class: "MET"

Now look at this entry.
Q. Entry "COc1cc(NS(C)(=O)=O)ccc1Nc1c2ccccc2nc2ccccc12" : is its Activity no less than 50%?
A. MET

Every entry's value here was drawn from ChEMBL document CHEMBL1122747.
